Could you please report measured MCC at 168 h for the items listed next?
Assay: Cytotoxicity against HEL cells assessed as cell morphology after 7 days
Assay type: cell-based
Details: human
One number for each entry, in µM.

Use these answered entries as a reference point.
>>> recorded_result("COc1nc(CC(C)(O)C(F)(F)F)c(-c2ccccc2)c(OC)n1 (configuration not stated)")
4
>>> recorded_result("COc1nc(C)c(-c2ccccc2)c(OC)n1")
100
>>> recorded_result("COc1nc(OC)c(Br)c(C(Br)Br)n1")
100
>>> recorded_result("COc1cc(/C=C(\\C)c2ccc(F)cc2)nc(OC)n1")
100

Next up:
Reported MCC at 168 h, compound COc1cc(CC(C)(CF)OC(C)=O)nc(OC)n1 (configuration not stated) : ____
73.5

---

Experiment: Cytotoxicity against HEL cells assessed as cell morphology after 7 days
Assay type: cell-based
Conditions: human
MEASUREMENT LABEL: MCC at 168 h

These solved cases illustrate the format of a correct answer.
>>> recorded_result("COc1cc(CC(C)(O)Cc2ccccc2F)nc(OC)n1 (stereo unspecified)")
"≥ 100 µM"
>>> recorded_result("COc1cc(/C=C(/O)c2ccc(F)cc2)nc(OC)n1")
"> 100 µM"
>>> recorded_result("CC(O)(Cc1cc(O)nc(O)n1)C(F)(F)F (stereo unspecified)")
"> 100 µM"

For each of the items listed, what is its MCC at 168 h?
1. COc1nc(C)c(Br)c(OC)n1
2. Nc1nc2c(ncn2COC(CO)CO)c(=O)[nH]1
3. Nc1nc2c(ncn2COCCO)c(=O)[nH]1

["≥ 100 µM", "> 1580 µM", "> 1780 µM"]

---

System: MIA PaCa-2
Test: Growth inhibition of MiaPaCa2 cells after 72 hrs by MTT assay
Type: functional, cell-based
Settings: Homo sapiens, MIA PaCa-2, 72 h
pIC50: −log10 of the molar value.
MEASUREMENT LABEL: pIC50

# annotated cases, reported pIC50 shown
>>> recorded_result("CC(=O)OC(C)(CF)Cc1cc(O)nc(O)n1 (stereo not drawn)")
"< 3.70"
>>> recorded_result("CC(O)(Cc1cc(O)nc(O)n1)C(F)(F)F (stereo not drawn)")
"< 4.00"
>>> recorded_result("COc1cc(CC(C)(O)Cc2ccccc2F)nc(OC)n1 (stereo not drawn)")
"< 3.70"
>>> recorded_result("COc1nc(C)c(-c2ccccc2)c(OC)n1")
"< 4.00"
>>> recorded_result("COc1cc(CC(C)(CF)OC(C)=O)nc(OC)n1 (stereo not drawn)")
4.41

For each listed entry, give its pIC50.
1. COc1nc(C)c(Br)c(OC)n1
2. COc1cc(CC(C)(O)CF)nc(OC)n1 (stereo not drawn)
3. COc1nc(OC)c(Br)c(C(Br)Br)n1

["< 4.00", "< 3.70", 5.70]

---

Test system: Mammalian orthoreovirus 1
Test: Antiviral activity against reovirus1 virus in Vero cells assessed as reduction of virus plaque formation after 7 days
Format: functional, organism-based
Details: Mammalian orthoreovirus 1, Vero, 168 h
pEC50: −log10 of the molar value.
Assignment: determine reported pEC50 for the given compounds.

>>> recorded_result("COc1cc(CC(C)(O)CF)nc(OC)n1 (configuration not stated)")
"< 3.70"
>>> recorded_result("COc1nc(CC(C)(O)C(F)(F)F)c(-c2ccccc2)c(OC)n1 (configuration not stated)")
"< 4.40"
>>> recorded_result("COc1cc(CC(C)(CF)OC(C)=O)nc(OC)n1 (configuration not stated)")
"< 4.54"

Record pEC50 for all entries; do not skip any.
1. COc1nc(CC(C)(O)c2ccc(F)cc2)c(C)c(OC)n1 (configuration not stated)
2. COc1cc(CC(C)(O)C(F)(F)F)nc(OC)n1 (configuration not stated)
3. CC(O)(Cc1cc(O)nc(O)n1)C(F)(F)F (configuration not stated)

["< 3.70", "< 3.70", "< 3.70"]

Return reported pEC50 values for all items listed beneath this line.
1. COc1cc(/C=C(\C)c2ccc(F)cc2)nc(OC)n1
2. COc1nc(C)c(Br)c(OC)n1

1. < 4.40
2. < 3.70

// batch mode: one pEC50 value per listed entry
1. COc1cc(/C=C(\O)C(F)(F)C(F)(F)F)nc(OC)n1
2. COc1cc(CC(C)(O)Cc2ccccc2F)nc(OC)n1 (configuration not stated)

["< 4.00", "< 3.89"]

Give one value of pEC50 per listed compound.
1. COc1nc(C)c(-c2ccccc2)c(OC)n1
2. NC(=O)c1ncn([C@@H]2O[C@H](CO)[C@@H](O)[C@H]2O)n1

1. < 4.40
2. 3.60

---

Assay: Cytotoxicity against HEL cells assessed as cell morphology after 7 days
Format: cell-based
Conditions: human
Hi there, I'd appreciate the recorded MCC at 168 h for every entry that follows.

Solved cases (3 shown):
>>> recorded_result("COc1cc(CC(O)(c2ccc(F)cc2)c2ccc(F)cc2)nc(OC)n1")
"> 100 µM"
>>> recorded_result("COc1cc(CC(C)(O)c2ccc(F)cc2)nc(OC)n1 (stereo unspecified)")
"> 100 µM"
>>> recorded_result("COc1cc(/C=C(/O)C(F)(F)F)nc(OC)n1")
"> 100 µM"

Each compound below has a reported value. Please supply its MCC at 168 h.
1. COc1cc(/C=C(\O)C(F)(F)C(F)(F)F)nc(OC)n1
2. CC(O)(CF)Cc1cc(O)nc(O)n1 (stereo unspecified)
3. O=c1[nH]c(=O)n([C@H]2C[C@H](O)[C@@H](CO)O2)cc1/C=C/Br

1. > 100 µM
2. > 100 µM
3. ≥ 1200 µM

---

System: HeLa
Assay: Growth inhibition of HeLa cells after 72 hrs by MTT assay
Assay type: functional, cell-based
Conditions: Homo sapiens
Hi there, I'd appreciate the recorded log10 of IC50 for every entry that follows.
// units: µM (pre-log); metric: IC50; scale: log10

A selection of reference data follows.
>>> recorded_result("COc1nc(C)c(-c2ccccc2)c(OC)n1")
1.95
>>> recorded_result("COc1cc(/C=C(\\O)C(F)(F)C(F)(F)F)nc(OC)n1")
1.42
>>> recorded_result("COc1cc(CC(C)(CF)OC(C)=O)nc(OC)n1 (stereo not drawn)")
1.07

# map each compound to its log10 of IC50
1. COc1nc(CC(C)(O)C(F)(F)F)c(-c2ccccc2)c(OC)n1 (stereo not drawn)
2. COc1cc(/C=C(\C)c2ccc(F)cc2)nc(OC)n1
3. COc1nc(CC(C)(O)c2ccc(F)cc2)c(C)c(OC)n1 (stereo not drawn)
4. COc1nc(OC)c(Br)c(C(Br)Br)n1

1.23
1.23
1.54
0.00

---

Could you please report measured IC50 for the items listed next?
Test system: CCRF-CEM
Assay: Growth inhibition of human CEM cells after 72 hrs by MTT assay
Type: functional, cell-based
Answers are plain numbers, in µM.

Example cases with answers are listed next.
>>> recorded_result("COc1cc(CC(C)(CF)OC(C)=O)nc(OC)n1 (stereo not drawn)")
20.6
>>> recorded_result("COc1cc(CC(C)(O)Cc2ccccc2F)nc(OC)n1 (stereo not drawn)")
156
>>> recorded_result("COc1cc(/C=C(\\O)C(F)(F)C(F)(F)F)nc(OC)n1")
9.7
>>> recorded_result("COc1nc(C)c(-c2ccccc2)c(OC)n1")
43
>>> recorded_result("COc1cc(/C=C(/O)c2ccc(F)cc2)nc(OC)n1")
192
>>> recorded_result("COc1nc(CC(C)(O)c2ccc(F)cc2)c(C)c(OC)n1 (stereo not drawn)")
136

I would be grateful if you could provide IC50 for each of the following entries.
1. COc1nc(CBr)c(Br)c(OC)n1
2. COc1nc(OC)c(Br)c(C(Br)Br)n1

1: 28; 2: 7.1

---

Test system: Sindbis virus
Assay: Antiviral activity against sindbis virus in Vero cells assessed as reduction of virus plaque formation after 7 days
Format: functional, organism-based
Settings: 168 h
pEC50: −log10 of the molar value.
MEASUREMENT LABEL: pEC50

Please review the entries below; each comes with its answer.
>>> recorded_result("CC(O)(Cc1cc(O)nc(O)n1)C(F)(F)F (configuration not stated)")
"< 3.70"
>>> recorded_result("COc1nc(CC(C)(O)c2ccc(F)cc2)c(C)c(OC)n1 (configuration not stated)")
"< 3.70"
>>> recorded_result("O=c1[nH]c(=O)n([C@H]2C[C@H](O)[C@@H](CO)O2)cc1/C=C/Br")
"< 3.60"
>>> recorded_result("COc1nc(C)c(Br)c(OC)n1")
"< 3.70"
>>> recorded_result("COc1cc(CC(C)(O)c2ccc(F)cc2)nc(OC)n1 (configuration not stated)")
"< 3.70"

Quick request: pEC50 for each listed item, please.
1. COc1cc(CC(C)(O)CF)nc(OC)n1 (configuration not stated)
2. CC(O)(CF)Cc1cc(O)nc(O)n1 (configuration not stated)
3. CC(=O)OC(C)(CF)Cc1cc(O)nc(O)n1 (configuration not stated)
4. COc1cc(/C=C(\C)c2ccc(F)cc2)nc(OC)n1

< 3.70
< 3.71
< 3.70
< 4.40

// each listed compound needs a value for pEC50
1. COc1cc(/C=C(\O)C(F)(F)C(F)(F)F)nc(OC)n1
2. COc1nc(CC(C)(O)C(F)(F)F)c(-c2ccccc2)c(OC)n1 (configuration not stated)
3. COc1cc(CC(C)(CF)OC(C)=O)nc(OC)n1 (configuration not stated)

1: < 4.00; 2: < 4.40; 3: < 4.54
